Target: UniProtKB Q9NWZ3
Sequence (Q9NWZ3 whole entry): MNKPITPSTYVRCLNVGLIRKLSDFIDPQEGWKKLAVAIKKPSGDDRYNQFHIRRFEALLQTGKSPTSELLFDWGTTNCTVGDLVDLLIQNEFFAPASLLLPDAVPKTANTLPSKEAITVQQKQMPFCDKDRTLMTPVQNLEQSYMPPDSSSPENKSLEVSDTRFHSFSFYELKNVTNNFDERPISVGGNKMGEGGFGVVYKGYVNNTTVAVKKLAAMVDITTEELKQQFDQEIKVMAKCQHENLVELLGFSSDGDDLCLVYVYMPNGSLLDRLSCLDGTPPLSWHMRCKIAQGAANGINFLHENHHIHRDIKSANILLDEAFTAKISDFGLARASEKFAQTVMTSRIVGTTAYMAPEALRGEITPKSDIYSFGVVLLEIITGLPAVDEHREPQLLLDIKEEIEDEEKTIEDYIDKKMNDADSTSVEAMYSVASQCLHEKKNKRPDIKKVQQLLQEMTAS
Experiment: Inhibition of human recombinant IRAK4 assessed as unphosphorylated KKARFSRFAGSSPSQSSMVAR peptide substrate measured after 2 hrs by LC-MS/MS analysis
Strictly below 1 nM in IC50: satisfied. Otherwise: not satisfied.

[
  {
    "compound": "CN1CC2(CC(n3cc(Nc4nc(NC5(C)CC5)c5c(=O)n(CC(F)F)ccc5n4)cn3)C2)C1",
    "measured-target": "UniProtKB Q9NWZ3",
    "qualitative-label": "not satisfied"
  },
  {
    "compound": "CN1CCC(n2cc(Nc3nc(NC4(C)CC4)c4c(=O)n(-c5cn(C)nn5)ccc4n3)cn2)CC1",
    "measured-target": "UniProtKB Q9NWZ3",
    "qualitative-label": "not satisfied"
  },
  {
    "compound": "C[C@H](CF)n1ccc2nc(Nc3cnn(C4CCN(C)CC4)c3)nc(NC3(C)CC3)c2c1=O",
    "measured-target": "UniProtKB Q9NWZ3",
    "qualitative-label": "not satisfied"
  }
]

hey, is IC50 for CN1CC[C@H](n2cc(Nc3nc(NC4(C)CC4)c4c(=O)n(C)ccc4n3)cn2)[C@H](F)C1 (racemic) lower than 1 nM or not? satisfied

For C[C@@H]1C[C@@H](n2cc(Nc3nc(NC4(C)CC4)c4c(=O)n(C)ccc4n3)cn2)CCN1C (racemic) , is the recorded IC50 below the cut-off of 1 nM? satisfied

Dear colleague, could you confirm whether IC50 of CC(C)n1ccc2nc(Nc3cnn(C4CCN(C)CC4)c3)nc(NC3(C)CC3)c2c1=O falls below 1 nM? Thanks. not satisfied

Determine if CN1C[C@H]2C[C@@H]1C[C@@H]2n1cc(Nc2nc(NC3(C)CC3)c3c(=O)n(CC(F)F)ccc3n2)cn1 shows IC50 strictly lower than 1 nM. not satisfied

Does CN(C)C(=O)CN1CCC(n2cc(Nc3nc(NC4(C)CC4)c4c(=O)n(C)ccc4n3)cn2)CC1 have IC50 strictly under 1 nM? satisfied

API: query returns whether the compound falls strictly under 1 nM in IC50. Query: COC(=O)N1CCN([C@H]2CC[C@H](Nc3nc(Nc4cnn(C)c4)nc4ccn(CC#N)c(=O)c34)CC2)CC1 not satisfied

Determine whether this compound shows IC50 lower than 1 nM (ties excluded): C[C@@H](CF)n1ccc2nc(Nc3cnn(C4CCN(C)CC4)c3)nc(NC3(C)CC3)c2c1=O not satisfied

Confirm or reject: IC50 of CN1CCC(n2cc(Nc3nc(NC4(C)CC4)c4c(=O)n(CC(F)F)ccc4n3)cn2)CC1 lies strictly below 1 nM not satisfied

Is the reported IC50 for C[C@@H](F)Cn1ccc2nc(Nc3cnn(C4CCN(C)CC4)c3)nc(NC3(C)CC3)c2c1=O strictly below 1 nM? not satisfied

Could you please tell me whether IC50 recorded for CN1CCC(n2cc(Nc3nc(NC4(C)CC4)c4c(=O)n(C(F)F)ccc4n3)cn2)CC1 is less than 1 nM? not satisfied
